Tested on: SF-268
ASSAY_PROTOCOL: NCI tumour cell line growth inhibition, 48 h
Active and inactive are the calls of the source. No stated cut-off is given here; in the data, active = GI50 up to about 1.1 µM and inactive = higher.
READOUT: GI50

Consider the following illustrative entries.
- COMPOUND: "O=C(CSc1nnc(-c2ccc(/N=C\\c3ccc(Cl)cc3)cc2)o1)Nc1ccccc1"
  GI50: "35.7 µM (inactive)"
- COMPOUND: "CC[C@@H]1/C=C/C=C/C[C@H](C)[C@@H](O)[C@@H](C)C(=O)[C@H](C)[C@@H](O)[C@H](C)C(=O)[C@H](C)[C@@H](O)[C@H](C)/C=C/C(=O)O[C@H]2[C@@H](C)[C@@H](CC1)O[C@@]1(CC[C@@H](C)[C@@H](CC(C)O)O1)[C@@H]2C (some centres not stated)"
  GI50: "6.98 µM (inactive)"
- COMPOUND: "Cc1cc2c(cc1-c1cc3c(cc1C)C(C(C)C)=C(O)C(=O)/C3=C\\Nc1cccc3c(N)cccc13)/C(=C/Nc1cccc3c(N)cccc13)C(=O)C(O)=C2C(C)C"
  GI50: "> 100 µM (inactive)"
- COMPOUND: "N#Cc1ccc(/C=C2\\Cc3ccccc3C2=O)cc1"
  GI50: "> 100 µM (inactive)"
- COMPOUND: "Clc1cccc(C2ON=C(c3ccccc3)N2C23CC4CC(CC(C4)C2)C3)c1Cl (configuration not stated)"
  GI50: "> 10 µM (inactive)"
- COMPOUND: "CC(=O)n1nc(-c2[nH]c(C)c(-c3nn(C(C)=O)c(=S)o3)c2C)oc1=S"
  GI50: "> 100 µM (inactive)"

Could you now look at the following compound, please?
Any idea what GI50 was measured for `Cn1c(=O)c2ccccc2[n+]2c(-c3cccc([N+](=O)[O-])c3)csc12` ?
26.5 µM (inactive)

* * *

Could you please report measured GI50 for the items listed next?
Test system: KM12
ASSAY_PROTOCOL: NCI tumour cell line growth inhibition, 48 h
The source made the active and inactive calls. Rule as the data show it: active = GI50 up to about 1.1 µM and inactive = higher.

- COMPOUND: "COc1ccc(C(c2ccccc2)N2C(=O)CCC2C(=O)O)cc1OC (stereo not drawn)"
  ASSAYED_TARGET: "KM12"
  GI50: "> 100 µM (inactive)"
- COMPOUND: "NC(=S)NS(=O)(=O)c1ccc(Cl)cc1Cl"
  ASSAYED_TARGET: "KM12"
  GI50: "> 100 µM (inactive)"
- COMPOUND: "COc1nc(N)c(C#N)c(C#N)c1C#N"
  ASSAYED_TARGET: "KM12"
  GI50: "> 10 µM (inactive)"
- COMPOUND: "Cc1ccc(/N=C2\\SC(=S)N(CCC[N+](C)(C)C)\\C2=N/c2ccc(C)cc2)cc1"
  ASSAYED_TARGET: "KM12"
  GI50: "24.4 µM (inactive)"
- COMPOUND: "Cc1cc(N(CCC#N)CCC#N)ccc1C(=N/NC(=O)c1cc(Cl)ccc1O)/N=N/c1cccc(Cl)c1"
  ASSAYED_TARGET: "KM12"
  GI50: "11.2 µM (inactive)"
- COMPOUND: "O=C(CSc1nnc(-c2ccc(/N=C\\c3ccc(Cl)cc3)cc2)o1)Nc1ccccc1"
  ASSAYED_TARGET: "KM12"
  GI50: "> 10 µM (inactive)"
- COMPOUND: "O=[N+]([O-])/C(C(Cl)=C(Cl)Cl)=C(\\N1CCOCC1)n1nnc2ccccc21"
  ASSAYED_TARGET: "KM12"
  GI50: "20.2 µM (inactive)"
- COMPOUND: "O=C(N/N=C/c1ccccc1O)c1cccc([N+](=O)[O-])c1"
  ASSAYED_TARGET: "KM12"
  GI50: "29.6 µM (inactive)"
- COMPOUND: "O=S(=O)(NCn1ccc2ccccc21)c1ccccc1"
  ASSAYED_TARGET: "KM12"
  GI50: "> 60.7 µM (inactive)"
- COMPOUND: "CCN(CC)S(=O)(=O)c1ccc2[nH]c(NC(=O)OC)nc2c1"
  ASSAYED_TARGET: "KM12"
  GI50: "36.9 µM (inactive)"

Hi team, please reply with GI50 for each item in this list.
1. COCO[C@@H]1C[C@H]2C(O)Nc3ccccc3C(=O)N2C1 (stereo partly drawn)
2. COc1c2cc([N+](=O)[O-])cc1CNC(=O)CN1CCOCCOCCN(CCOCCOCC1)CC(=O)NC2

> 100 µM (inactive)
> 100 µM (inactive)

Would you mind giving GI50 for every compound in the list below?
1. Nc1ncn(C2OC(COP(=O)(O)O)C(O)C2O)c(=O)n1 (stereo not drawn)
2. COC(=O)/C=C(\C)CC/C=C(\C)CCC(O)C(C)(C)O (stereo not drawn)

1: > 100 µM (inactive); 2: 13.9 µM (inactive)

Batch of 2 compounds: report GI50 for each.
1. O=C1CCCC1C(=O)Nc1ccc2ccccc2c1 (stereo not drawn)
2. O=C(Nc1ccc(Cl)cc1)c1cc(S(=O)(=O)Nc2n[nH]c(=O)n2-c2ccccc2)c(S)cc1Cl

["84.9 µM (inactive)", "> 100 µM (inactive)"]

From: ChEMBL document CHEMBL1201862
